Kindly supply the reported Number of dead mice, 1st day values for the records listed here.
- System: ICR mice
- Test Description: Acute toxicity test
- Type: in vivo
- Condition Description: female, 71.4 mg/kg i.p.

- CC(C)C1OC(CN)C(CN)O1.CC1[O][Pt][O]C1=O (centres unmarked): 0/6
- NC[C@H]1OC2(CCCC2)O[C@@H]1CN.O=C1C[O][Pt][O]1: 0/6
- CC1[O][Pt][O]C1=O.NCC1OC2(CCCC2)OC1CN (centres unmarked): 0/6
- CC1[O][Pt][O]C1=O.CCC1OC(CN)C(CN)O1 (centres unmarked): 0/6

Shifting focus to the compound that follows.
// fetch ICR mice Number of dead mice, 1st day for CCC1O[C@H](CN)[C@@H](CN)O1.O=C1C[O][Pt][O]1 0/6
